System: HL-60(TB) leukemia
testName: NCI tumour cell line growth inhibition, 48 h
resultType: TGI (µM)

1. COc1ccc(C2C3=C(Nc4ncnn42)c2ccccc2OC3c2ccccc2)cc1 (stereo not given) ... 8.92
2. COc1cc(NS(=O)(=O)c2ccc(-c3cnc(C4CC4)o3)cc2)ccc1F ... 6.86
3. COC(=O)C12C3C4C1C1C2C3C41NC(=O)c1csc([C@@H](C[C@H](C(C)C)N(C)C(=O)[C@@H](NC(=O)[C@H]2CCCCN2C)C2CC2)OC(C)=O)n1 (stereo not given in full) ... 0.00777

* * *

Test system: T-47D breast
testName: NCI tumour cell line growth inhibition, 48 h; in the data active = GI50 below about 0.43 µM; inactive = the rest
Outcome codes: active, inactive

1. C=C(C)C1CCC2(C(=O)O)CCC3(C)C(CCC4C5(C)CCC(OC(=O)NCc6ccccc6)C(C)(C)C5CCC43C)C12 (configuration not stated) ... inactive
2. O=C1/C(=C/c2ccc(O)cc2)CSc2ccc(Cl)cc21 ... inactive
3. O=C(/C=C\n1cnc(-c2cc(C(F)(F)F)cc(C(F)(F)F)c2)n1)NNc1cnccn1 ... active
4. CCC(=O)c1c(C(F)(F)F)n([O-])c2ccc(C)cc2[n+]1=O ... inactive
5. O=C(/C(=C/c1cccc([N+](=O)[O-])c1)c1ccccc1)c1ccccc1 ... inactive
6. Cc1ccc2c3c(c(=O)[nH]c2c1)C1(C(C#N)=C(N)O3)c2cc(Br)ccc2-c2ccc(Br)cc21 ... inactive
7. COc1cc(NS(=O)(=O)c2ccc(-c3cnc(C4CC4)o3)cc2)ccc1F ... inactive
8. Cc1cc(O)c(C(C)(C)C)cc1Sc1cc(C(C)(C)C)c(O)cc1C ... inactive
9. CC[C@H](C)[C@H]1O[C@]2(C=C[C@@H]1C)C[C@@H]1C[C@@H](C/C=C(\C)[C@@H](O[C@H]3C[C@H](OC)[C@@H](O[C@H]4C[C@H](OC)[C@@H](NC)[C@H](C)O4)[C@H](C)O3)[C@@H](C)/C=C/C=C3\CO[C@@H]4[C@H](O)C(C)=C[C@@H](C(=O)O1)[C@]34O)O2 ... inactive
10. CCc1oc2ccccc2c1C(=O)c1cc(I)c(O)c(I)c1 ... inactive
11. Cc1ccc(C(=O)Nc2ccc(CN3CCN(C)CC3)c(C(F)(F)F)c2)cc1C#Cc1cnc(N)c2ccccc12 ... inactive
12. COc1ccccc1Cn1cc2c(c1-c1ccccc1)CCc1cnoc1-2 ... inactive

* * *

Tested on: HCT-116 colon
testName: NCI tumour cell line growth inhibition, 48 h
resultType: GI50

1) CCN(CC)CCCC(C)Nc1cnc(C(=O)Nc2cccc3ccc(OC)nc23)cn1 (centres undefined) ... 1620 nM
2) O=C(/C(=C/c1cccc([N+](=O)[O-])c1)c1ccccc1)c1ccccc1 ... 2010 nM
3) N#Cc1cccc(NC(=O)c2cc(-c3ccc(F)cc3F)ccc2O)c1 ... 2570 nM
4) COc1ccccc1Cn1cc2c(c1-c1ccccc1)CCc1cnoc1-2 ... 2800 nM
5) C=C(C)C1CCC2(C(=O)O)CCC3(C)C(CCC4C5(C)CCC(OC(=O)NCc6ccccc6)C(C)(C)C5CCC43C)C12 (centres undefined) ... 2240 nM
6) Cc1ccc2c3c(c(=O)[nH]c2c1)C1(C(C#N)=C(N)O3)c2cc(Br)ccc2-c2ccc(Br)cc21 ... 1940 nM
7) CCNc1cc2c(cc1O)CC[C@@H]1[C@@H]2CC[C@]2(C)[C@@H](O)CC[C@@H]12 ... 3100 nM
8) Cc1ccc2[nH]c(C(=O)NN3C(=O)C(C)SC34CCCC(C)C4)c(-c3ccccc3)c2c1 (centres undefined) ... 75700 nM
9) C=C1C(=O)O[C@H]2[C@H]1CC/C(COC(=O)c1cc3ccccc3s1)=C\CC[C@@]1(C)O[C@@H]21 ... 591 nM

* * *

System: NCI-H226 lung
testName: NCI tumour cell line growth inhibition, 48 h
resultType: TGI

1. CCCCCN(CCCCC)CC(O)c1ccc(Cl)c2ccccc12 (stereo unspecified) ... 23.1 µM
2. C/C=C(/C)C(=O)O[C@H]1C[C@@H]2[C@@H](O)c3occ(C)c3C[C@]2(C)[C@@H](C)C1 ... 29.2 µM
3. CCOc1ccc2c(c1)[n+]([O-])c(-c1nc3ccccc3s1)c(N)[n+]2[O-] ... > 100 µM
4. Cc1[nH]c2ccccc2c1C1Cc2ccccc2N1C(=O)/C(Cl)=C/c1ccccc1 (stereo unspecified) ... > 100 µM
5. CC(=O)Nc1ccc2[nH]c(C(=O)N3CC(CCl)c4c3cc(N)c3ccccc43)cc2c1 (stereo unspecified) ... < 0.0238 µM
6. O=C(O)[C@@H]1CSCN1C(=O)[C@@H]1CCC(=S)N1 ... > 100 µM

* * *

System: DLD-1 colon
testName: NCI tumour cell line growth inhibition, 48 h
// values below are reported TGI
resultType: TGI

1) N#CCc1ccc(C(C#N)/C(CCCC(=O)Nc2cccc([N+](=O)[O-])c2)=N/NC(N)=S)cc1 (stereo unspecified) ... > 100 µM
2) CC(C)N1CN(C(C(=O)N[C@@H]2C(=O)N3C2SC(C)(C)C3C(=O)O)c2ccccc2)CSC1=S (stereo partly specified) ... > 100 µM
3) CC(=O)N1C/C(=C\c2ccc(N(C)C)cc2)C(=O)/C(=C/c2ccc(N(C)C)cc2)C1 ... > 100 µM
4) CS(=O)(=O)c1cc(=O)c2ccccc2s1 ... 4.21 µM
5) Cc1ccc(-c2cc(=O)c3cc(C)c(C)c(C(=O)O)c3o2)cc1C ... > 100 µM
6) CC(C)c1cc2c(O)c(c1)Cc1cc(C(C)C)cc(c1O)Cc1cc(C(C)C)cc(c1O)Cc1cc(C(C)C)cc(c1O)C2 ... > 100 µM

* * *

System: SF-295 CNS
testName: NCI tumour cell line growth inhibition, 48 h
resultType: TGI (µM)

1) c1cc[c]([Pb]([c]2ccccc2)[c]2ccccc2)cc1 ... 58.3
2) COC(=O)C(=Cc1cc(OC)c(OC)c(OC)c1-c1cc2c(cc1C(C)=O)OCO2)C(=O)OC ... 102
3) Cc1ccc(NC(=S)N/N=C(/c2ccccc2)c2ccccn2)cc1 ... 12.7

* * *

Quick reference: TGI of the listed items.
Test system: RPMI-8226 leukemia
testName: NCI tumour cell line growth inhibition, 48 h
resultType: TGI

1) O=C1N[C@@H](c2c[nH]c3cc(Br)ccc23)C(=O)N[C@H]1c1c[nH]c2cc(Br)ccc12 ... > 100 µM
2) C=CCc1cc(-c2cc(CC=C)c(O)c(CNCCCl)c2)cc(CNCCCl)c1O ... 61.9 µM
3) CC[C@H](C)[C@H]1O[C@]2(C=C[C@@H]1C)C[C@@H]1C[C@@H](C/C=C(\C)[C@@H](O[C@H]3C[C@H](OC)[C@@H](O[C@H]4C[C@H](OC)[C@@H](NC)[C@H](C)O4)[C@H](C)O3)[C@@H](C)/C=C/C=C3\CO[C@@H]4[C@H](O)C(C)=C[C@@H](C(=O)O1)[C@]34O)O2 ... 13.6 µM
4) COc1cc(O)c2c(c1)OCC(Cc1ccc(O)cc1)C2=O (stereo not drawn) ... > 100 µM
5) O=C(O)[C@@H]1CSCN1C(=O)[C@@H]1CCC(=S)N1 ... > 100 µM
6) O=C1O/C(=C(/Cl)c2cccc3ccccc23)c2ccccc21 ... > 100 µM
7) CCOC(=O)c1c(C)nc2c(c1N)/C(=C/c1ccc(OC)cc1)C(=O)N2Cc1ccc(F)cc1 ... 0.653 µM
8) COc1cc(OC)cc(-c2nc3cc(F)ccc3s2)c1 ... > 100 µM
9) Cc1ccc(C(=O)Nc2ccc(CN3CCN(C)CC3)c(C(F)(F)F)c2)cc1C#Cc1cnc(N)c2ccccc12 ... 2.08 µM
10) CC(C)N1CN(C(C(=O)N[C@@H]2C(=O)N3C2SC(C)(C)C3C(=O)O)c2ccccc2)CSC1=S (stereo partly drawn) ... > 100 µM
11) Cc1cccc2c(N)c3cccc(C(=O)NCC[N+](C)(C)Cc4c([N+](=O)[O-])ncn4C)c3nc12 ... > 100 µM
12) Clc1ccc(-c2c(C3=NCCCN3)nnn2-c2ccc(Cl)cc2)cc1 ... 62.4 µM
13) O=C1CCCCC2N(C(c3ccccc3)c3ccccc3)CC[C@@]12c1ccccc1 (mixture of isomers) ... 9.31 µM
14) CCN(CC)CCCC(C)Nc1cnc(C(=O)Nc2cccc3ccc(OC)nc23)cn1 (stereo not drawn) ... 6.15 µM
15) CCOC(=O)CN=C1NNS(=O)(=O)c2ccccc21 ... > 100 µM
16) CC(C)CCCC(=O)CCCCCCC(=O)CCN(O)C(=O)C(N)CO (stereo not drawn) ... 57.5 µM
17) Cc1cc(=O)n2nc(CN3CCCCC3)sc2n1 ... > 100 µM
18) N#CCC(=O)NC1C2CC3CC(C2)CC1C3 (stereo not drawn) ... > 100 µM
19) N#C/C(=C\c1cc2ccccc2c2ccccc12)c1ccccc1 ... > 51.1 µM
20) FC(F)(F)c1nc(-c2ccccc2)oc1Sc1nnc(Sc2oc(-c3ccccc3)nc2C(F)(F)F)s1 ... > 74.6 µM
21) Cc1nc(-c2ccccc2)c(-c2ccccc2)s1 ... 37.5 µM
22) CC(=NNC(=S)Nc1ccc(C)cc1)c1cccc(C(C)=NNC(=S)Nc2ccc(C)cc2)n1 ... 85.8 µM
23) CCn1c(SCC(=O)NNC(=S)Nc2ccc(C)cc2)nc2ccccc2c1=O ... > 100 µM
24) Nc1ncn(C2CC(O)C(CO)O2)c(=O)n1 (stereo not drawn) ... > 375 µM
25) COC(=O)[C@H](Cc1c[nH]c2ccccc12)NC(=O)[C@@H](OC)[C@@H]1Cc2cc3cc(OC4CC(OC5CC(O)C(O)C(C)O5)C(O)C(C)O4)c(C)c(O)c3c(O)c2C(=O)[C@H]1OC1CC(OC2CC(OC3CC(C)(O)C(O)C(C)O3)C(O)C(C)O2)C(O)C(C)O1 (stereo partly drawn) ... 0.0607 µM
26) CN(C)/C=N/S(=O)(=O)c1nn2c(C=O)c(-c3ccc(Cl)cc3)nc2s1 ... 4.22 µM
27) CC(=O)OCCOCn1cnc2c(Cl)nc(Cl)nc21 ... 33.5 µM
28) COC(=O)C12C3C4C1C1C2C3C41NC(=O)c1csc([C@@H](C[C@H](C(C)C)N(C)C(=O)[C@@H](NC(=O)[C@H]2CCCCN2C)C2CC2)OC(C)=O)n1 (stereo partly drawn) ... > 33.3 µM
29) CC1(C)N=C(N)N=C(N)N1c1ccc(OCc2ccc(S(=O)(=O)F)c(Cl)c2)c(Cl)c1 ... > 100 µM
30) c1ccc(CSP234N5CCN2CCN3CCN4CC5)c(CSP234N5CCN2CCN3CCN4CC5)c1 ... > 100 µM
31) N.N.O=C([O-])P(=O)([O-])[O-].[Na+].[Pt+4] ... > 100 µM
32) Cc1ccc(NC(=S)N/N=C(/c2ccccc2)c2ccccn2)cc1 ... > 58.4 µM
33) CNc1nc2n(CCO)c(-c3ccccc3)c(-c3ccccc3)nc-2c(=O)n1 ... > 50 µM
34) CN1C(=O)c2ccccc2NC(=O)C12O[C@@H]2c1cccc(O)c1 (stereo partly drawn) ... > 100 µM
35) Cn1cnc([N+](=O)[O-])c1[Se]c1nc(N)nc2c1ncn2C1OC(CO)C(O)C1O (stereo not drawn) ... > 100 µM
36) O=S1(=O)N(CCNc2nccc(-c3c(-c4cccc(O)c4)nc4sccn34)n2)CCN1Cc1ccccc1 ... 14.3 µM
37) O=C(O)[C@@H]1CCCCN1Cc1cc2cc3c(cc2c2cc(OCc4ccccc4)ccc12)OCO3 ... 77.4 µM
38) CSC1=N/C(=C\c2ccccc2)C(=O)N1CN1CCCCC1 ... > 100 µM
